pIC50 reference
# targetOrSystem: delta opioid receptor (Homo sapiens, UniProt P41143)
# Sequence (P41143 whole entry): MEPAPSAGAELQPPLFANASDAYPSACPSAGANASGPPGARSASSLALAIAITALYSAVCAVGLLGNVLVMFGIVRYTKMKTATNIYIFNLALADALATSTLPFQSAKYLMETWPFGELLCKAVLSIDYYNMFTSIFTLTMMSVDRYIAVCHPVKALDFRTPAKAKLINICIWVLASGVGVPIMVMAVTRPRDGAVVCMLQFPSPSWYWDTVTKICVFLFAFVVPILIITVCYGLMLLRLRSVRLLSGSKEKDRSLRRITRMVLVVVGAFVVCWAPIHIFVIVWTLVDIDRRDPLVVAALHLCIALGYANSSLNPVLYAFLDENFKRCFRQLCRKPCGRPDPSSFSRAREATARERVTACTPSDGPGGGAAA
# testDescription: Filtration binding assay: delta opioid receptor
pIC50: −log10 of the molar value.

# molecule, comparisonSign, pIC50
measured = [
    ("O=C1N(C[C@@H](O)CNCc2cccc(Br)c2)CN(c2ccc(F)cc2)C12CCN(CC1CCCCCCC1)CC2 [compound 20]", "<", 5.00),
    ("O=C1N(C[C@@H](O)CN2CCN(c3cccc(C(F)(F)F)c3)CC2)CN(c2ccc(F)cc2)C12CCN(CC1CCCCCCC1)CC2 [Compound #66]", "=", 5.23),
    ("O=C1N(C[C@@H](O)CNCc2ccc(F)cc2F)CN(c2ccc(F)cc2)C12CCN(CC1CCCCCCC1)CC2 [Compound #7]", "=", 5.15),
    ("COc1ccc(CCN(C)C[C@@H](O)CN2CN(c3ccc(F)cc3)C3(CCN([C@@H]4Cc5cccc6cccc4c56)CC3)C2=O)cc1OC [Compound #339]", "<", 5.00),
]
